Assignment: determine reported fold repression for the given binders.
# Measurement target: T1, ECF11_987
# T1 chain: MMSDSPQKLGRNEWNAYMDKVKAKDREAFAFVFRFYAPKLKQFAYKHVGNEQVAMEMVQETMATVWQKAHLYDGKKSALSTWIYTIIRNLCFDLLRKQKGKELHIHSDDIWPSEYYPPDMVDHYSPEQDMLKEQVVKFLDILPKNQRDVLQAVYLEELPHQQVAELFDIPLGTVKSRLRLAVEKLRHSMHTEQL
One number for each entry.

AS02_915 (protein) MEKTGQEWVSASVDGETDRQTLAELAADTDSHAKWQRYHLMGDAMRDELPQAMPLDLSARIAAALEDEPTILAPKVEREATQAPSRAVVVPFMRQLGQYGIAAAVALMAVVGVQNYQSTQDDAPLPVLNTRPLVGTATPVSLQTGPVANQNQGNANDQLLEQRRRINAYLQDHMLQQRLNTGAVVDDNSEVTPIPVNR ... 3.88
AS14_1324 (protein) MSGSRPEPEGHLAEQHLGDRLSALVDGELGHDARERVLAHVATCPKCKAEVDAQRRLKNVFAEAAPPAPSESFLARLQGLPGGGDSDGGGSPFSGLPGGFGASAASGVFGPRRDERFEFDYVPAGSHTPVLPSATSGRGFRIHEVGRHESDRSASRGLRFAFAAAGAVSLAAIALGGVTLGTPDTTTEARGSGSGSNVTPLRTPGSAAATGSESQRRRTAGPLLGQGQRALGDLPVASTTASAPLLPGMPAPAGGDARQQAVRALTTPVTAGAAAMSPLIRPLEAVPPLSLSSWSAAPEVRPPGLLAAPDPAPSPYPAASPAASSSPLR ... 6.84
AS15_436 (protein) MAQSTEPKASPQEATAKGGDNTKGKSRKELQQQIDENLRRVYEEALVQEVPDRFAMLLDQLRQKGTGK ... 2.8

Note: attention shifts to another entry.
Q) Give the measured fold repression for AS37_2513 (protein) MSSAPATKEEVDFALKVRRALDERAASLPDATTDRLAAARRAALARKKPDAAIVLVPALAGSAGTLELRPPGEPRKSLARRLARAWPLALLLAGLIGIAYWEDMQRTAELADIDAAMLSDNLPLTAYLDHGFNAYLSHTH
A) 9.25
